Catalogue of molecules with associated pIC50
target: Dipeptidyl peptidase 4 (Homo sapiens); test: Inhibition of human recombinant DPP4 using H-Gly-Pro-7-amino-4-methylcoumarin as substrate assessed as inhibition of 7-amino-4-methylcoumarin formation after 30 mins by fluorimetry
Answer as the number alone; pIC50 is minus log10 of concentration in mol/L.

N[C@H]1CN(c2ccc(-n3ccc(OCc4ccccc4)cc3=O)cn2)C[C@@H]1c1cc(F)c(F)cc1F	5.96
N[C@H]1CN(c2ccc(-n3ccc(OCc4ccccc4)cc3=O)cn2)CC[C@@H]1c1cc(F)c(F)cc1F	6.46

// next entry
Entry N[C@H]1CN(c2ccc(-n3ccc(OCc4ccccc4)cc3=O)cn2)C[C@@H]1c1cc(F)ccc1F , pIC50 reported as 5.78

----------
target: Melanin-concentrating hormone receptor 1 (Homo sapiens); assay: Antagonist activity at human MCH1R expressed in CHO cells assessed as inhibition of MCH-induced response at 5 uM; type: functional, cell-based
Is inhibition at least 40%? Then met. If not, not met.

Examples from the recorded data:
CCCCOc1ccc2c(c1)CCN(c1ccc(N3C[C@H](c4cc(F)ccc4F)[C@@H](N)C3)nc1)C2=O	met
N[C@H]1CN(c2ccc(-n3ccc(OCc4ccccc4)cc3=O)cn2)C[C@@H]1c1cc(F)ccc1F	met
CC(C)COc1ccc(CC(=O)Nc2ccc(N3C[C@H](c4cc(F)ccc4F)[C@@H](N)C3)nc2)cc1	not met
N[C@H]1CN(c2ccc(-n3ccnc(CCCc4ccccc4)c3=O)cn2)C[C@@H]1c1cc(F)ccc1F	met

As a next step, examine the compound that follows.
In plain terms: is recorded inhibition at least 40% for N[C@H]1CN(c2ccc(CCNC(=O)c3ccc(OCC4CC4)cc3)cn2)C[C@@H]1c1cc(F)ccc1F ? met

----------
molecular target: UniProt Q6V1X1
Sequence (Q6V1X1 whole entry): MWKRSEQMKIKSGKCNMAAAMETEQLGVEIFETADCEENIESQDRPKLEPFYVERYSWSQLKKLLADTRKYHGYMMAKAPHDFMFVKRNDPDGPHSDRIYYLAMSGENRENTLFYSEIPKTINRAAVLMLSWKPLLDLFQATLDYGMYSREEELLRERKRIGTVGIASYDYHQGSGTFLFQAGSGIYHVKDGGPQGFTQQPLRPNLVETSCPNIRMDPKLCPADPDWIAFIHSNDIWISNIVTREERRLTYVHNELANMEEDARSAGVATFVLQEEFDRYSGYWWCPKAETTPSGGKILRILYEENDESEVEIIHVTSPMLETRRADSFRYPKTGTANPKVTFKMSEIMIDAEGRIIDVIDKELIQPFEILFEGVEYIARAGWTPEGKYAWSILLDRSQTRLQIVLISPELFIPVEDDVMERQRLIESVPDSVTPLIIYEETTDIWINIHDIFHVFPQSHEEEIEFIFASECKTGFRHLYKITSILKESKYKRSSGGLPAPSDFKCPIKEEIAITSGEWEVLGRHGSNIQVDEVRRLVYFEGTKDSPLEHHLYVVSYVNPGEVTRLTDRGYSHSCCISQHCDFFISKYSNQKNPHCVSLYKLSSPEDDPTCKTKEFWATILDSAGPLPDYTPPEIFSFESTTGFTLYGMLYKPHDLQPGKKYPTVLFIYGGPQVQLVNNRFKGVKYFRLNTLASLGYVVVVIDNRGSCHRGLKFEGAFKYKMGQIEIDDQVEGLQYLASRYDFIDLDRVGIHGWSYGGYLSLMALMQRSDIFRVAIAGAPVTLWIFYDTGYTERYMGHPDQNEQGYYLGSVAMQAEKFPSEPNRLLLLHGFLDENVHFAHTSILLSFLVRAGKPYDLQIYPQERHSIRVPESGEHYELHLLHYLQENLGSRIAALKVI
pIC50: −log10 of the molar value.
measuredQuantity: pIC50

The compound listed as N[C@@H]1CCN(c2ccc(-n3ccc(OCc4ccccc4)cc3=O)cn2)C1 has a reported pIC50 of < 4.00

----------
assay: Lipophilicity, log D of the compound at pH 7.4; assay type: physicochemical; conditions: buffer
measuredQuantity: logD
Format: numeric value only, no unit, no commentary.

Record N[C@H]1CN(c2ccc(-n3ccc(OCc4ccccc4)cc3=O)cn2)C[C@@H]1c1cc(F)c(F)cc1F , field logD: 3.4

----------
target: Dipeptidyl peptidase 4 (Homo sapiens, UniProt P27487)
Sequence (P27487 whole entry): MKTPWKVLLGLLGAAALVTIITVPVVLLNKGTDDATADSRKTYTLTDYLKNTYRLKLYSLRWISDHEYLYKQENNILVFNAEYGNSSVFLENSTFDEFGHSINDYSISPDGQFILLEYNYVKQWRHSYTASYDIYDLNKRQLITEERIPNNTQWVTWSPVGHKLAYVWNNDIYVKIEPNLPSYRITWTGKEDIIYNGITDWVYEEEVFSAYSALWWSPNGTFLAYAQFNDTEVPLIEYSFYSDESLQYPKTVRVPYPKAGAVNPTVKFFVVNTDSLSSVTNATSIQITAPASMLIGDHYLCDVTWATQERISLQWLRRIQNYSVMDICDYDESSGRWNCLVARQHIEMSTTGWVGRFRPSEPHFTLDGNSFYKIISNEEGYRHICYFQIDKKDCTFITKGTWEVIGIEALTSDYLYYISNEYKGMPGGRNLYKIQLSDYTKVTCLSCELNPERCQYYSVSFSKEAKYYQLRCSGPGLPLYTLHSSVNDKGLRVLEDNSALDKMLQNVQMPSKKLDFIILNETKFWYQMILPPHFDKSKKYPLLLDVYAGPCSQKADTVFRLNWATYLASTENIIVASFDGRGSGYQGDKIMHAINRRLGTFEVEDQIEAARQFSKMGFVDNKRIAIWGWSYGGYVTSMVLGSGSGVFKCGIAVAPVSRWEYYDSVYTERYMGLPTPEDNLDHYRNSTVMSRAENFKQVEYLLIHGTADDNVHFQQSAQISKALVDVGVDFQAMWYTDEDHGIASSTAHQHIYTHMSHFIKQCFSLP
measuredQuantity: Ki (nM)
Provide only the numeric value, understood in nM.

Item: N[C@H]1CN(c2cc(-c3ccccc3)ncn2)CC[C@@H]1c1cc(F)c(F)cc1F | System: Dipeptidyl peptidase 4 (Homo sapiens, UniProt P27487) | Ki: 6

----------
target: Voltage-gated inwardly rectifying potassium channel KCNH2 (Homo sapiens, UniProt Q12809)
Sequence (Q12809 whole entry): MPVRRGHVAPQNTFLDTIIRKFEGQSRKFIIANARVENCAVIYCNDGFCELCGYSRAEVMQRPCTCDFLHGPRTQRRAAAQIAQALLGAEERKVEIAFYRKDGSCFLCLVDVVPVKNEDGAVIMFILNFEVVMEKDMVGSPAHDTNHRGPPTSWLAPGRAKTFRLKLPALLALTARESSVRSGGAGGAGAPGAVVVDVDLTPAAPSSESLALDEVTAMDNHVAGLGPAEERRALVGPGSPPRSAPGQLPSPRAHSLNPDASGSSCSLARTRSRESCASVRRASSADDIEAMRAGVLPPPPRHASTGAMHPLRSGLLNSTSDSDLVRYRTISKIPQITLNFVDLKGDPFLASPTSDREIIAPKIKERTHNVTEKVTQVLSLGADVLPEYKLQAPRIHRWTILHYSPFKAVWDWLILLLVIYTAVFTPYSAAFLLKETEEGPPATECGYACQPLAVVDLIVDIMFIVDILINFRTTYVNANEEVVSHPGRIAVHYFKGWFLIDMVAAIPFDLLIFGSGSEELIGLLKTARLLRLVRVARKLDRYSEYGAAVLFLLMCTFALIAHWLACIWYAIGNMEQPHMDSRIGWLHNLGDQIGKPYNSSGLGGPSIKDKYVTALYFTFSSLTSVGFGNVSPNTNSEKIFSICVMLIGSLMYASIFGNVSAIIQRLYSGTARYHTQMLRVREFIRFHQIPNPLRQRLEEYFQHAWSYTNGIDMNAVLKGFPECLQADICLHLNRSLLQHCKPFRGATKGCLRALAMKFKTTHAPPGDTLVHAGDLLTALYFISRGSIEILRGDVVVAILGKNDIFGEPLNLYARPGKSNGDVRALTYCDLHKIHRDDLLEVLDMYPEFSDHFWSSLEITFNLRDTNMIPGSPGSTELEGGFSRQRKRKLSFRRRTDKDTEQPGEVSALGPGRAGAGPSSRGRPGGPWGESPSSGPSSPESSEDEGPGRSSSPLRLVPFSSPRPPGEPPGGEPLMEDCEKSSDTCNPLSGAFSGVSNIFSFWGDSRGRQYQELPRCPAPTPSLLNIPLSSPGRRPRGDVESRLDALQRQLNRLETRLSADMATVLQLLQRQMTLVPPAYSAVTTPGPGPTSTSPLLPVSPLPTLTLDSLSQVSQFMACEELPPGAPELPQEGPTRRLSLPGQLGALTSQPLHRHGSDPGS
measuredQuantity: pIC50
The read-out pIC50 is expressed as -log10 of concentration in moles per litre.

The recorded pIC50 for entry N[C@H]1CN(c2ccc(-n3ccc(OCc4ccccc4)cc3=O)cn2)C[C@@H]1c1cc(F)c(F)cc1F equals 5.21

----------
target: Melanin-concentrating hormone receptor 1 (Homo sapiens, UniProt Q99705); assay: Antagonist activity at human MCH1R expressed in CHO cells assessed as inhibition of MCH-induced response
Sequence (Q99705 whole entry): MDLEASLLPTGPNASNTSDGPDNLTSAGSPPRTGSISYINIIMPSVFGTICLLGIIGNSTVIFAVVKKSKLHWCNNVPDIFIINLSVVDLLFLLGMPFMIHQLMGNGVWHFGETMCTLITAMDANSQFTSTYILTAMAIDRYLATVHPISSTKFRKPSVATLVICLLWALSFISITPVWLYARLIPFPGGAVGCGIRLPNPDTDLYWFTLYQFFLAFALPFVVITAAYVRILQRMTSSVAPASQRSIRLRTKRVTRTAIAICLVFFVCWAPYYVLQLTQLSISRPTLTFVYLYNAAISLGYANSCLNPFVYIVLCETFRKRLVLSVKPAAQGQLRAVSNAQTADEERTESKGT
measuredQuantity: log10 of IC50 (log10 of the value in nM)
Use the decimal logarithm of IC50 (nM).

N[C@H]1CN(c2ccc(CCNC(=O)c3ccc(OCC4CC4)cc3)cn2)C[C@@H]1c1cc(F)ccc1F	3.58
N[C@H]1CN(c2ccc(-n3ccc(OCc4ccccc4)cc3=O)cn2)CC[C@@H]1c1cc(F)c(F)cc1F	2.64
CCCCOc1ccc2c(c1)CCN(c1ccc(N3C[C@H](c4cc(F)ccc4F)[C@@H](N)C3)nc1)C2=O	3.60
N[C@H]1CN(c2ccc(-n3ccc(OCc4ccccc4)cc3=O)cn2)C[C@@H]1c1cc(F)ccc1F	2.15
N[C@@H]1CCN(c2ccc(-n3ccc(OCc4ccccc4)cc3=O)cn2)C1	1.30

Now for the molecule whose log10 of IC50 we want.
response.value for N[C@H]1CN(c2ccc(-n3ccc(OCc4ccccc4)cc3=O)cn2)C[C@@H]1c1cc(F)c(F)cc1F (field: log10 of IC50) = 2.04
